GI50 overview
system: SK-MEL-28 melanoma; test: NCI tumour cell line growth inhibition, 48 h

Illustrative cases are given below, each with its answer.
In [3]: df
Out[3]:
                            structurestring       result
0           Cc1cc(N/N=C/c2ccccn2)nc2ccccc12       895 nM
1  COc1ccc(-c2nc(-c3cc(OC)cc(OC)c3)[nH]c2-c2ccc(OC)cc2)cc1  > 100000 nM
2  O=C(/C(=C\c1c(-c2ccccc2)[nH]c2ccccc12)S(=O)(=O)c1ccccc1)c1ccccc1  > 100000 nM
3                    CN(C)C(=S)SSC(=S)N(C)C     17800 nM
4  CC1(C)CN=C(NN=C(/C=C/c2ccc(C(F)(F)F)cc2)/C=C/c2ccc(C(F)(F)F)cc2)NC1      1640 nM

Recorded GI50 for COc1cc(/C=C\c2cc(OC)c(OC)c(OC)c2)cc(N/C=C\C(=O)c2c[nH]c3ccccc23)c1OC , please?
1860 nM

Now the same for CCCC/C(=C\C1=C(C)C(=O)C(OC)=C(OC)C1=O)C(=O)O
> 100000 nM

Now the same for CC(C)c1[nH]nc2c1N=C(c1ccccc1Cl)c1cc([N+](=O)[O-])ccc1N2
6260 nM

Now the same for Cc1cn(-c2cc(C(=O)Nc3cccc(-n4ccc5c(NC(=O)c6ccccc6)nccc54)c3)cc(C(F)(F)F)c2)cn1
546 nM

This collection of values is drawn from PubChem BioAssay (NCI).
